Tested on: RPMI-8226
Experiment: NCI tumour cell line growth inhibition, 48 h
Activity calls are given as the source filed them. Cut-off read from the data, not from the text of the source: active = GI50 up to about 1.1 µM and inactive = higher.
measured.metric: GI50

# compound, GI50
data = [
    ("N#CCN1CCCCCc2ccccc21", "> 100 µM (inactive)"),
    ("CN(C)c1ccc(/C=N/NC2=N/C(=C\\c3ccco3)C(=O)N2)cc1", "> 100 µM (inactive)"),
    ("CNC(=O)N(CCCCC(NC(C)=O)C(=O)NCc1ccccc1)Cc1ccccc1 (stereo not drawn)", "> 100 µM (inactive)"),
    ("Nc1ccc(Oc2ccc(C34CC5CC6C3CC3CC4C(C5)C6(c4ccc(Oc5ccc(N)c(O)c5)cc4)C3)cc2)cc1O", "1.93 µM (inactive)"),
    ("CCn1c(SCC(=O)NNC(=S)Nc2ccc([N+](=O)[O-])cc2)nc2ccccc2c1=O", "29.9 µM (inactive)"),
    ("CSC1(CC(=O)N2CCCCC2)C(=O)Nc2ccccc21 (stereo not drawn)", "> 100 µM (inactive)"),
]

Next:
Kindly indicate its recorded GI50. Item: Oc1c(Cl)cc(CN(Cc2cc(Cl)c(O)c(Cl)c2)C2CCCCC2)cc1Cl
> 100 µM (inactive)

====

Test system: LOX IMVI
Test: NCI tumour cell line growth inhibition, 48 h
Calls of active or inactive are those of the source. No stated cut-off is given here; in the data, active = GI50 up to about 1.1 µM and inactive = higher.
measured.metric: GI50

Here is how some molecules turned out for GI50.
# molecule, measured.metric, assay.value
rows = [
    ("CN1C[C@@H]2CCCN2P1Oc1cccc2cccnc12 (stereo partly drawn)", "GI50", "97.5 µM (inactive)"),
    ("COc1ccc(/C=C/c2nnc(S)[nH]2)cc1", "GI50", "> 100 µM (inactive)"),
]

Attention now turns to another entry.
Answer with reported GI50 of O=C(Cc1ccc(Cl)c(Cl)c1)NCCCN1CCN(CCCN2CCCCC2)CC1
14.1 µM (inactive)

====

System: MCF7
Experiment: NCI tumour cell line growth inhibition, 48 h
Calls of active or inactive are those of the source. No stated cut-off is given here; in the data, active = GI50 up to about 1.1 µM and inactive = higher.
Respond with a class label; see active, inactive

# molecule, class.assignment
data = [
    ("CCCC(=O)N[C@H]1CCc2cc(OC)c(OC)c(OC)c2-c2ccc(SC)c(=O)cc21", "active"),
]

Could you please tell me the result logged for O=C(Nc1ccc(Cl)cc1C(F)(F)F)C(=O)Nn1c(S)nc2ccccc2c1=O in this assay?
inactive

====

Test system: CAKI-1
Experiment: NCI tumour cell line growth inhibition, 48 h
Active and inactive are the calls of the source. Cut-off read from the data, not from the text of the source: active = GI50 up to about 1.1 µM and inactive = higher.
Please answer using one outcome listed in true = active, false = inactive

As a guide, the following entries are already answered.
# molecule, class.assignment
data = [
    ("CC(=O)Nc1cc(CN2CCCCC2)c(O)c2ncccc12", "false"),
    ("COC(=O)c1c2c(c(-c3ccccc3)c3c1-c1nc(Cl)ccc1CC3)CCc1ccc(Cl)nc1-2", "false"),
    ("COc1cc(Nc2ccc3c(c2)CCC3)nc(OC)n1", "false"),
]

Dear colleague, could you share the recorded outcome for Cc1oc2c(cc(O)c3ccccc32)c2cccc1-2 when you have a moment?
false

// outcome(item) with item = c1ccc2sc(C3(N4CCC5(CC4)OCCO5)CCCCC3)cc2c1
false

Give the logged outcome of this assay for the following molecule: COc1cc(/C=C/C=C2\CCC/C(=C\C=C\c3ccc(O)c(OC)c3)C2=O)ccc1O
false

Give the logged outcome of this assay for the following molecule: Cn1c2ccccc2n2c3ncccc3c(=S)c(C#N)c12
false

What is the recorded call for this molecule in the test? S=C(NCc1ccccc1)N/N=C/c1ccccn1
true

What classification did CCOC(=O)[C@H]1CSC[C@@H](C(=O)OC)N1 end up with in this test?
false

Lab log entry: NC(CP(=O)(O)O)C(=O)O (centres undefined) — outcome as called in the assay?
false

Hello, I am checking results. What call was entered for Cc1cccc(C)c1NC(=O)CCCC(=O)C1CCC/C1=N\NC(=O)C(=O)NN (centres undefined) ?
false

Tell me the assay call for C#CCCCOc1ncccn1 please.
false

Recorded test outcome, item C[C@H]1O[C@@H](O[C@H]2[C@@H](O)C[C@H](O[C@H]3[C@@H](O)C[C@H](O[C@H]4CC[C@@]5(C)[C@H](CC[C@@H]6[C@@H]5CC[C@]5(C)[C@@H](C7=CC(=O)OC7)[C@@H](O)C[C@]65O)C4)O[C@@H]3C)O[C@@H]2C)C[C@H](O)[C@@H]1O
true

Each molecule tested received a call. Report the one for O=C1CCCCC1C1(O)C(=O)Nc2cc(F)ccc21 (centres undefined) .
false

What is the recorded call for this molecule in the test? NNC(=O)CS(=O)(=O)Nc1ncccn1
false

Record lookup: outcome of this test for O=C(Nc1nccs1)c1c(O)nc2sccn2c1=O ?
false

Field: outcome | Entry: CN(CCc1ccc(Cl)c(Cl)c1)CCN(C)CCN1CCCC1
false

Outcome logged for O=C1CCc2nc3ncccc3cc2C1 in this assay:
false

Per the records of this test, what outcome belongs to COC(=O)/C=C1\C(=O)Nc2ccc(Br)cc21 ?
true

====

Tested on: KM12
Assay: NCI tumour cell line growth inhibition, 48 h
Activity calls are given as the source filed them. No stated cut-off is given here; in the data, active = GI50 up to about 1.1 µM and inactive = higher.
Recorded GI50 values for a group of compounds are listed next.

Please review the following examples before continuing.
# compound, GI50
measured = [
    ("Cc1nc2sc(C(=O)c3ccc(Cl)cc3)c(N)c2c(-c2ccccc2Cl)c1C(=O)Nc1ccccc1", "18.5 µM (inactive)"),
    ("C=C1C(=O)O[C@@H]2/C=C(/C)[C@@H](OC(C)=O)C/C=C(\\C)C(O)[C@@H](OC(=O)/C(C)=C\\C)C12 (stereo not given in full)", "68.7 µM (inactive)"),
    ("CC(=O)OC1C=CC2CCN3C(=O)c4cc5c(cc4[C@H]1C23)OCO5 (stereo not given in full)", "> 100 µM (inactive)"),
    ("CN1CN(c2ccccc2)C2(CCN(CCCC3(c4cccs4)OCCO3)CC2)C1=O", "> 100 µM (inactive)"),
    ("N#CC1C[C@@H]2CC3(CCC2CN1C(=O)c1ccccc1)OCCO3 (stereo not given in full)", "> 100 µM (inactive)"),
    ("COc1ccc2c(c1)C(CCN)C(=O)N2 (stereo not given)", "> 100 µM (inactive)"),
    ("N#CCN1CCCCCc2ccccc21", "> 100 µM (inactive)"),
    ("O=C1CCCCC1C1(O)C(=O)Nc2cc(F)ccc21 (stereo not given)", "> 100 µM (inactive)"),
]

Return reported GI50 for target or system KM12, item O=C(Cc1ccc(Cl)c(Cl)c1)NCCCN1CCN(CCCN2CCCCC2)CC1 .
15.8 µM (inactive)

Supply GI50 measured with KM12 for C#CC[N+](C)(CC#C)CC#C .
> 100 µM (inactive)

Answer briefly: GI50 recorded on KM12 for CC1=CCS(=O)(=O)C1C(O)C1=C(C)CCCC1(C)C (stereo not given)
59.7 µM (inactive)

Give KM12 GI50 for the following compound: O=C(C1=C(C(=O)c2ccccc2)SC2(S1)C(C(=O)c1ccccc1)=C(C(=O)c1ccccc1)Sc1c2ssc1=O)c1ccccc1
29.8 µM (inactive)

Identify measured GI50 obtained with KM12 for O=c1cc(-c2ccccc2)[nH]c2c(F)ccc(F)c12 .
18.5 µM (inactive)

With KM12 as the test system, provide measured GI50 for this compound: CCC(=O)OCc1ccc2oc(=O)c(C(=O)Oc3cncc(Cl)c3)cc2c1
> 100 µM (inactive)

Please report the measured GI50 for COC(=O)C1=C2SCc3cccc(c3)CSC3=C(C(=O)OC)SC(=C(S2)S1)S3 tested on KM12.
> 100 µM (inactive)

====

System: CAKI-1
Test: NCI tumour cell line growth inhibition, 48 h
The source made the active and inactive calls. No stated cut-off is given here; in the data, active = GI50 up to about 1.1 µM and inactive = higher.
Measured GI50 values are reported for all entries that follow.

Example entries and their recorded answers appear below.
# compound, measurement.target, GI50
rows = [
    ("COC1(O)c2cccc(Cl)c2C(=O)N1C1(C(N)=O)CCCCC1 (stereo unspecified)", "CAKI-1", "> 100 µM (inactive)"),
    ("CC1(C)C(=O)C2(N)CCC1C2 (stereo unspecified)", "CAKI-1", "> 100 µM (inactive)"),
    ("CCOC(=O)c1c(Cl)nc2ccccc2c1N=[N+]=[N-]", "CAKI-1", "20.2 µM (inactive)"),
]

Specify reported GI50 for the compound shown: O=[N+]([O-])CC(SCc1ccccc1)c1ccc2c(c1)OCO2 (stereo unspecified)
14.2 µM (inactive)

Write down GI50 measured for item Cc1ccc2c(c1)CN(C(=O)CCC(=O)OCc1ccccc1)c1ccc(C)cc1CN2C(=O)CCC(=O)OCc1ccccc1
> 100 µM (inactive)

Return GI50 (reported value) for this compound: Cc1nnc(-n2c(O)cc(=O)n(-c3ccccc3)c2=S)nc1/C=C/c1ccc(N(C)C)cc1
5.7 µM (inactive)

Please give the documented GI50 of COc1cc(C=O)c(-c2cc(OC)c(OC)cc2C=O)cc1OC
> 100 µM (inactive)

Note down GI50 recorded for CCCCCC(C)C[C@H]1CO[C@H](c2ccc[nH]2)N[C@H]1C(=O)OC (stereo partly specified)
> 100 µM (inactive)

Determine from records and report GI50 for Cc1c(C#N)c2ccccc2c2nc3ccccc3n12
67.9 µM (inactive)

Read the entry COC1=C2C[C@](OC)(C#CC=CC#CC2O)CC1(C)C (stereo partly specified) and write its reported GI50.
> 100 µM (inactive)

Quickly give me recorded GI50 for CC(=O)c1c2n(n(-c3ccccc3)c1=O)C(=O)c1nccnc1-2
> 100 µM (inactive)
